Catalogue of MIC readings, one per entry.
system: Streptococcus pyogenes C203; assay: MIC, standard agar-dilution assay; type: cell-based
Observed property: MIC

molecule="CNC(CC(C)C)C(=O)NC1C(=O)NC(CC(N)=O)C(=O)NC2C(=O)NC3C(=O)NC(C(=O)NC(C(=O)O)c4cc(O)cc(O)c4-c4cc3ccc4O)C(OC3CC(C)(NCc4ccc(F)cc4)C(O)C(C)O3)c3ccc(c(Cl)c3)Oc3cc2cc(c3OC2OC(CO)C(O)C(O)C2OC2CC(C)(N)C(O)C(C)O2)Oc2ccc(cc2Cl)C1O (stereo not drawn)" observed_property=MIC observed=".5 µg/mL"
molecule=CN[C@H](CC(C)C)C(=O)N[C@H]1C(=O)N[C@@H](CC(N)=O)C(=O)N[C@H]2C(=O)N[C@H]3C(=O)N[C@H](C(=O)N[C@H](C(=O)O)c4cc(O)cc(O)c4-c4cc3ccc4O)[C@H](O[C@H]3C[C@](C)(NCc4ccc(Cl)cc4)[C@@H](O)[C@H](C)O3)c3ccc(cc3)Oc3cc2cc(c3O[C@@H]2O[C@H](CO)[C@@H](O)[C@H](O)[C@H]2O[C@H]2C[C@](C)(N)[C@@H](O)[C@H](C)O2)Oc2ccc(cc2Cl)[C@H]1O observed_property=MIC observed=".5 µg/mL"
molecule="CNC(CC(C)C)C(=O)NC1C(=O)NC(CC(N)=O)C(=O)NC2C(=O)NC3C(=O)NC(C(=O)NC(C(=O)O)c4cc(O)cc(O)c4-c4cc3ccc4O)C(OC3CC(C)(N)C(O)C(C)O3)c3ccc(c(Cl)c3)Oc3cc2cc(c3OC2OC(CO)C(O)C(O)C2OC2CC(C)(NCc3ccccc3)C(O)C(C)O2)Oc2ccc(cc2Cl)C1O (stereo not drawn)" observed_property=MIC observed=".25 µg/mL"

----------
Test system: Streptococcus pyogenes C203
Experiment: MIC, standard agar-dilution assay
Assay type: cell-based
Protocol: The formula I compounds have in vitro and in vivo activity against Gram-positive pathogenic bacteria. The MIC's were determined using a standard agar-dilution assays.
Observed property: MIC

chemical_structure=CCN(CC)c1ccc(CN[C@@]2(C)C[C@H](O[C@H]3[C@H](Oc4c5cc6cc4Oc4ccc(cc4Cl)[C@@H](O)[C@@H](NC(=O)[C@@H](CC(C)C)NC)C(=O)N[C@@H](CC(N)=O)C(=O)N[C@H]6C(=O)N[C@H]4C(=O)N[C@H](C(=O)N[C@H](C(=O)O)c6cc(O)cc(O)c6-c6cc4ccc6O)[C@H](O[C@H]4C[C@](C)(N)[C@@H](O)[C@H](C)O4)c4ccc(cc4)O5)O[C@H](CO)[C@@H](O)[C@@H]3O)O[C@@H](C)[C@@H]2O)cc1 observed=".25 µg/mL"

----------
Catalogue of MIC readings, one per entry.
tested on: Enterococcus faecium X66; test: MIC, standard agar-dilution assay; assay type: cell-based
Observed property: MIC

compound="CNC(CC(C)C)C(=O)NC1C(=O)NC(CC(N)=O)C(=O)NC2C(=O)NC3C(=O)NC(C(=O)NC(C(=O)O)c4cc(O)cc(O)c4-c4cc3ccc4O)C(OC3CC(C)(NCc4ccc(F)cc4)C(O)C(C)O3)c3ccc(c(Cl)c3)Oc3cc2cc(c3OC2OC(CO)C(O)C(O)C2OC2CC(C)(N)C(O)C(C)O2)Oc2ccc(cc2Cl)C1O (stereo not drawn)" observed_property=MIC observed="1 µg/mL"
compound=CN[C@H](CC(C)C)C(=O)N[C@H]1C(=O)N[C@@H](CC(N)=O)C(=O)N[C@H]2C(=O)N[C@H]3C(=O)N[C@H](C(=O)N[C@H](C(=O)O)c4cc(O)cc(O)c4-c4cc3ccc4O)[C@H](O[C@H]3C[C@](C)(NCc4ccccc4)[C@@H](O)[C@H](C)O3)c3ccc(cc3)Oc3cc2cc(c3O[C@@H]2O[C@H](CO)[C@@H](O)[C@H](O)[C@H]2O[C@H]2C[C@](C)(NCc3ccccc3)[C@@H](O)[C@H](C)O2)Oc2ccc(cc2Cl)[C@H]1O observed_property=MIC observed=".25 µg/mL"
compound="CNC(CC(C)C)C(=O)NC1C(=O)NC(CC(N)=O)C(=O)NC2C(=O)NC3C(=O)NC(C(=O)NC(C(=O)O)c4cc(O)cc(O)c4-c4cc3ccc4O)C(OC3CC(C)(NCc4ccccc4)C(O)C(C)O3)c3ccc(cc3)Oc3cc2cc(c3OC2OC(CO)C(O)C(O)C2O)Oc2ccc(cc2Cl)C1O (stereo not drawn)" observed_property=MIC observed="2 µg/mL"
compound=CC(C)C[C@H](C(=O)N[C@H]1C(=O)N[C@@H](CC(N)=O)C(=O)N[C@H]2C(=O)N[C@H]3C(=O)N[C@H](C(=O)N[C@H](C(=O)O)c4cc(O)cc(O)c4-c4cc3ccc4O)[C@H](O[C@H]3C[C@](C)(NCc4ccccc4)[C@@H](O)[C@H](C)O3)c3ccc(cc3)Oc3cc2cc(c3O[C@@H]2O[C@H](CO)[C@@H](O)[C@H](O)[C@H]2O[C@H]2C[C@](C)(NCc3ccccc3)[C@@H](O)[C@H](C)O2)Oc2ccc(cc2Cl)[C@H]1O)N(C)Cc1ccccc1 observed_property=MIC observed="4 µg/mL"
compound="CNC(CC(C)C)C(=O)NC1C(=O)NC(CC(N)=O)C(=O)NC2C(=O)NC3C(=O)NC(C(=O)NC(C(=O)O)c4cc(O)cc(O)c4-c4cc3ccc4O)C(OC3CC(C)(N)C(O)C(C)O3)c3ccc(c(Cl)c3)Oc3cc2cc(c3OC2OC(CO)C(O)C(O)C2OC2CC(C)(NCc3ccccc3)C(O)C(C)O2)Oc2ccc(cc2Cl)C1O (stereo not drawn)" observed_property=MIC observed=".25 µg/mL"
compound=CCCCCN(C)[C@H](CC(C)C)C(=O)N[C@H]1C(=O)N[C@@H](CC(N)=O)C(=O)N[C@H]2C(=O)N[C@H]3C(=O)N[C@H](C(=O)N[C@H](C(=O)O)c4cc(O)cc(O)c4-c4cc3ccc4O)[C@H](O[C@H]3C[C@](C)(N)[C@@H](O)[C@H](C)O3)c3ccc(c(Cl)c3)Oc3cc2cc(c3O[C@@H]2O[C@H](CO)[C@@H](O)[C@H](O)[C@H]2O[C@H]2C[C@](C)(N)[C@@H](O)[C@H](C)O2)Oc2ccc(cc2Cl)[C@H]1O observed_property=MIC observed=".5 µg/mL"

----------
Catalogue of MIC readings, one per entry.
test system: Staphylococcus aureus V41; assay: MIC, standard agar-dilution assay; assay type: cell-based
Observed property: MIC (µg/mL)

compound="CCCCCCCCOc1ccc(CNC2(C)CC(OC3C(Oc4c5cc6cc4Oc4ccc(cc4Cl)C(OC4CC(C)(N)C(O)C(C)O4)C4NC(=O)C(NC(=O)C6NC(=O)C(CC(N)=O)NC(=O)C(NC(=O)C(CC(C)C)NC)C(O)c6ccc(c(Cl)c6)O5)c5ccc(O)c(c5)-c5c(O)cc(O)cc5C(C(=O)O)NC4=O)OC(CO)C(O)C3O)OC(C)C2O)cc1 (stereo not drawn) [Compound 55]" observed_property=MIC unit_text=µg/mL observed=4
compound="CCCCCCC(=O)NC1(C)CC(OC2c3ccc(c(Cl)c3)Oc3cc4cc(c3OC3OC(CO)C(O)C(O)C3OC3CC(C)(N)C(O)C(C)O3)Oc3ccc(cc3Cl)C(O)C(NC(=O)C(CC(C)C)NC)C(=O)NC(CC(N)=O)C(=O)NC4C(=O)NC3C(=O)NC2C(=O)NC(C(=O)O)c2cc(O)cc(O)c2-c2cc3ccc2O)OC(C)C1O (stereo not drawn) [Compound 69]" observed_property=MIC unit_text=µg/mL observed=2

----------
test system: Enterococcus faecalis 2041; test: MIC, standard agar-dilution assay; format: cell-based
Catalogue of MIC readings, one per entry.
Observed property: MIC (µg/mL)

compound="CNC(CC(C)C)C(=O)NC1C(=O)NC(CC(N)=O)C(=O)NC2C(=O)NC3C(=O)NC(C(=O)NC(C(=O)O)c4cc(O)cc(O)c4-c4cc3ccc4O)C(OC3CC(C)(NCc4ccc(F)cc4)C(O)C(C)O3)c3ccc(c(Cl)c3)Oc3cc2cc(c3OC2OC(CO)C(O)C(O)C2OC2CC(C)(N)C(O)C(C)O2)Oc2ccc(cc2Cl)C1O (centres unmarked) [Compound 66]" observed=1
compound="CCCCCNC1(C)CC(OC2c3ccc(cc3)Oc3cc4cc(c3O)Oc3ccc(cc3Cl)C(O)C(NC(=O)C(CC(C)C)NC)C(=O)NC(CC(N)=O)C(=O)NC4C(=O)NC3C(=O)NC2C(=O)NC(C(=O)O)c2cc(O)cc(O)c2-c2cc3ccc2O)OC(C)C1O (centres unmarked) [Compound 74]" observed=8

----------
system: vancomycin-resistant (Vanco^r) E. faecium and E. faecalis; test: Susceptibility of vancomycin-resistant enterococci, agar-dilution MIC; format: cell-based
Observed property: Ratio (mean MIC vancomycin-resistant strains / mean MIC vancomycin-susceptible strains)

compound="CN[C@H](CC(C)C)C(=O)N[C@H]1C(=O)N[C@@H](CC(N)=O)C(=O)N[C@H]2C(=O)N[C@H]3C(=O)N[C@H](C(=O)N[C@H](C(=O)O)c4cc(O)cc(O)c4-c4cc3ccc4O)[C@H](O[C@H]3C[C@](C)(N)[C@@H](O)[C@H](C)O3)c3ccc(c(Cl)c3)Oc3cc2cc(c3O[C@@H]2O[C@H](CO)[C@@H](O)[C@H](O)[C@H]2O[C@H]2C[C@](C)(N)[C@@H](O)[C@H](C)O2)Oc2ccc(cc2Cl)[C@H]1O [Compound A82846B, A82846B, reference compound]" tested_on="vancomycin-resistant (Vanco^r) E. faecium and E. faecalis" observed=18.4
compound="CCCCCCCCN[C@@]1(C)C[C@H](O[C@H]2[C@H](Oc3c4cc5cc3Oc3ccc(cc3Cl)[C@@H](O[C@H]3C[C@](C)(N)[C@@H](O)[C@H](C)O3)[C@@H]3NC(=O)[C@H](NC(=O)[C@@H]5NC(=O)[C@H](CC(N)=O)NC(=O)[C@H](NC(=O)[C@@H](CC(C)C)NC)[C@H](O)c5ccc(c(Cl)c5)O4)c4ccc(O)c(c4)-c4c(O)cc(O)cc4[C@@H](C(=O)O)NC3=O)O[C@H](CO)[C@@H](O)[C@@H]2O)O[C@@H](C)[C@@H]1O [Compound 38]" tested_on="vancomycin-resistant (Vanco^r) E. faecium and E. faecalis" observed=2.9
